I'd be grateful if you could share measured AC50 for these entries.
- tgt: UniProt:Q06710
- Sequence (Q06710 whole entry): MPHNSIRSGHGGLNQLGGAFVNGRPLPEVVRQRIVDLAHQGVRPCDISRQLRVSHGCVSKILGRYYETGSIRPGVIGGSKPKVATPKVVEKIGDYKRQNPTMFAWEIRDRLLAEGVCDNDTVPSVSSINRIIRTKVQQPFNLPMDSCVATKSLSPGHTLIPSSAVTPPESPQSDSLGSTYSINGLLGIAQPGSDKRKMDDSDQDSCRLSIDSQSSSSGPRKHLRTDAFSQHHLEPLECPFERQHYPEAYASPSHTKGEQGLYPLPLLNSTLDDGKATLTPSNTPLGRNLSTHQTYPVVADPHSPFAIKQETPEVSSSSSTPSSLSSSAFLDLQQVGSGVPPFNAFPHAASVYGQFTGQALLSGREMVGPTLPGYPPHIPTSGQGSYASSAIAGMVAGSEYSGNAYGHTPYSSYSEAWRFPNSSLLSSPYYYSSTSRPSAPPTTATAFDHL
- assay.comment: PAX8 transcriptional activity inhibition in RMG-I – RMG-I cells, luciferase, cherry-pick, dose response (AID 687027);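 also: luciferase reporter driven by Pax8 target thyroperoxidase promoter measured by SteadyGlo luminescence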
- Format: functional, cell-based
The source made the active and inactive calls. No rule for the calls is given here.

Recorded result, COC1=CC(=O)c2c(ccc3ncnc(N)c23)C1=O , AC50: 1.06 µM (active)

The measured AC50 associated with COc1ccc(-c2sc3ccccc3c2-c2ccc(OCCN(C)C)cc2)cc1 reads 13 µM (active)

Briefly, AC50 measured for O=C(C[C@@H]1C[C@H]2c3cc(NC(=O)Nc4ccc(C(F)(F)F)cc4)ccc3O[C@H]2[C@H](CO)O1)NCc1ccc(Cl)cc1 : 17.5 µM (active)

Item: C[C@@H]1CCCCO[C@H](CN(C)Cc2ccc(C(F)(F)F)cc2)[C@@H](C)CN([C@@H](C)CO)C(=O)c2cc(NC(=O)Nc3ccc(F)cc3)ccc2O1 | AC50: 5.36 µM (active)
